- ASSAYED_TARGET: B7-H4 purified monomeric recombinant human protein (Homo sapiens, UniProt Q7Z7D3)
- Sequence (Q7Z7D3 25-259): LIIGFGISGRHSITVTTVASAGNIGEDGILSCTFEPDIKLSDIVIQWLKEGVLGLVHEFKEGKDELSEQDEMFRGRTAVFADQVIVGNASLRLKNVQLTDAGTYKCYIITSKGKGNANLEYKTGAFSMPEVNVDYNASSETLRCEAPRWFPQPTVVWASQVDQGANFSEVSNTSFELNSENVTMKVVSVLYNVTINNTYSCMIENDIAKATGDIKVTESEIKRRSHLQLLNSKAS
- METHOD_DESCRIPTION: SPR
TEST_READOUT: koff (s⁻¹)
Return type: number; implicit unit s⁻¹.

binder="parental antibody against B7-H4, scFv-Fc (scFv, V domains shown) VH: EVQLVESGGGVVQPGRSLRLSCAASGFTFSSYSMNWVRQAPGKGLEWVSAISGSGGSTYYADSVKGRFTISRDNSKNTLYLQMNSLRAEDTAVYYCARKRWYGMDVWGQGTTVTVSS VL: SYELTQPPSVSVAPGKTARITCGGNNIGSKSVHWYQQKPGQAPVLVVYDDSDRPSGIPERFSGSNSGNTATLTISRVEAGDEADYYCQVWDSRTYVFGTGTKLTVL" reading=0.0033
binder="A01 (scFv, V domains shown) VH: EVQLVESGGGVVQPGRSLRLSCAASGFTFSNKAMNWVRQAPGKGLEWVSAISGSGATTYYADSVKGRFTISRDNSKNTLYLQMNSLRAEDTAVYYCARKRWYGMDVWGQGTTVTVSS VL: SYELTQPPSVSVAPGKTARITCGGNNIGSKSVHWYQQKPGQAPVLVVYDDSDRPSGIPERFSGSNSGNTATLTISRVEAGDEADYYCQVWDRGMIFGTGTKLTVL" reading=3.7e-05

Moving on to the next binder.
Input: May I ask what koff has been recorded for B08 (scFv, V domains shown) VH: EVQLVESGGGVVQPGRSLRLSCAASGFTFSDRAMNWVRQAPGKGLEWVSAISASGASRYYADSVKGRFTISRDNSKNTLYLQMNSLRAEDTAVYYCARKRWYGMDVWGQGTTVTVSS VL: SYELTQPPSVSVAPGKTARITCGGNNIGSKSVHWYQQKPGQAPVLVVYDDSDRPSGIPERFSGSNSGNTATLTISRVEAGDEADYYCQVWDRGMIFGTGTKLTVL ?
Output: 1.8e-05
